- target.or.test.system: PARP1 (Homo sapiens (Human))
- Sequence (P09874 whole entry, species assumed): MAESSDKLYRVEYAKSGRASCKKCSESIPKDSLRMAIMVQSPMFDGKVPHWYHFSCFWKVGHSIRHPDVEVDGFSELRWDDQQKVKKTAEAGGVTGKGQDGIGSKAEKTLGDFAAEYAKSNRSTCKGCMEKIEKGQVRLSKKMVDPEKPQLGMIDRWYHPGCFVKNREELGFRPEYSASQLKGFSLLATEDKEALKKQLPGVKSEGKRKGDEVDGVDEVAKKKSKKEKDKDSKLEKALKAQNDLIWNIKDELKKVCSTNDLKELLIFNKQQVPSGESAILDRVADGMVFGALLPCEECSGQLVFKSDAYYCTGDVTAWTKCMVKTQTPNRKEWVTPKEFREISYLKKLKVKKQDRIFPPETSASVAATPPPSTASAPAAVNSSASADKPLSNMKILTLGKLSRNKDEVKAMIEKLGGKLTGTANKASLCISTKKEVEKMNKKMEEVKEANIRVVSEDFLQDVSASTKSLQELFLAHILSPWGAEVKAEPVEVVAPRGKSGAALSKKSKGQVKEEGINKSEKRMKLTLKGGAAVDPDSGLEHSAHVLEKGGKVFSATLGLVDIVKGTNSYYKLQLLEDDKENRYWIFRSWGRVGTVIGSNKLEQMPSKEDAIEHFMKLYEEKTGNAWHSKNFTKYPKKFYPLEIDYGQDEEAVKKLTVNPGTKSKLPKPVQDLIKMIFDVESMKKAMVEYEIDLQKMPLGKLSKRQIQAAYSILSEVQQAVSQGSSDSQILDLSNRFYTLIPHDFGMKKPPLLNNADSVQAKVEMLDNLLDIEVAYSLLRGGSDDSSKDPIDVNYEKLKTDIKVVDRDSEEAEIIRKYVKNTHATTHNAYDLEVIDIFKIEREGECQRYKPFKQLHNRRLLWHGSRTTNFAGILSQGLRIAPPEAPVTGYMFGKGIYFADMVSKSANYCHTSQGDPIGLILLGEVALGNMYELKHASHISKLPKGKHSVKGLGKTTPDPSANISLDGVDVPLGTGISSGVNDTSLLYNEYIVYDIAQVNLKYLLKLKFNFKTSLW
- assay.explanation: PASTA biochemical PARP screening assay, PARP1
- experimental.parameters: read-out: IC50 PARP1
test.readout: IC50

compound="CC#Cc1ccc2c(=O)[nH]nc(Cc3ccc(F)c(C(=O)N4CCN(c5ccc(C#N)cn5)CC4)c3)c2c1 [Example 10]" value_measured="> 3 µM"

###

GI50 by entry:
- Test system: NCI-H1373 (human lung adenocarcinoma) cells
- assay.explanation: Cell proliferation assay (CellTiter-Glo), NCI-H1373
- Assay type: cell-based
- experimental.parameters: Homo sapiens, NCI-H1373, 144 h; 6 days, CellTiter-Glo; read-out: NCI-H1373 GI50
test.readout: GI50

molecule=CC#Cc1ccc2c(=O)[nH]nc(Cc3ccc(F)c(C(=O)NCc4nnc(C(F)(F)F)o4)c3)c2c1 test_readout=GI50 value_measured="1000 to 5000 nM"
molecule=O=C(c1cc(Cc2n[nH]c(=O)c3ccc(OC4CCC4)cc23)ccc1F)N1CCN(c2ccc(O)cn2)CC1 test_readout=GI50 value_measured="1000 to 5000 nM"
molecule=C#CCNc1ccc2c(=O)[nH]nc(Cc3ccc(F)c(C(=O)N4CCN(c5ccc(C#N)cn5)CC4)c3)c2c1 test_readout=GI50 value_measured="1000 to 5000 nM"
molecule=CC#CCOc1ccc2c(=O)[nH]nc(Cc3ccc(F)c(C(=O)N4CCN(c5ccc(C#N)cn5)CC4)c3)c2c1 test_readout=GI50 value_measured="100 to 1000 nM"
molecule=N#Cc1ccc(N2CCN(C(=O)c3cc(Cc4n[nH]c(=O)c5ccc(N6CC(C(F)(F)F)C6)cc45)ccc3F)CC2)nc1 test_readout=GI50 value_measured="100 to 1000 nM"
molecule=N#Cc1ccc(N2CCN(C(=O)c3cc(Cc4n[nH]c(=O)c5ccc(OC6CCC6)cc45)ccn3)CC2)nc1 test_readout=GI50 value_measured="< 100 nM"
molecule=N#Cc1ccc(N2CCN(C(=O)c3cc(Cc4n[nH]c(=O)c5cccnc45)ccc3F)CC2)nc1 test_readout=GI50 value_measured="> 5000 nM"
molecule=CC#Cc1ccc2c(=O)[nH]nc(Cc3ccc(F)c(C(=O)N4CCn5c(nnc5C(F)(F)F)C4)c3)c2c1 test_readout=GI50 value_measured="100 to 1000 nM"
molecule=COc1cc2c(Cc3cccc(C(=O)N4CCN(c5ccc(C#N)cn5)CC4)c3)n[nH]c(=O)c2cc1F test_readout=GI50 value_measured="< 100 nM"
molecule="N#Cc1ccc(N2CCN(C(=O)c3cc(Cc4n[nH]c(=O)c5ccc(OC6CCC6)cc45)ccc3F)[C@@H]3C[C@@H]32)nc1 (stereo in doubt)" test_readout=GI50 value_measured="100 to 1000 nM"
molecule=N#Cc1ccc(N2CCN(C(=O)c3cccc(Cc4n[nH]c(=O)c5c(F)cccc45)c3)CC2)nc1 test_readout=GI50 value_measured="100 to 1000 nM"
molecule="CC(CC(=O)N1CCN(c2ccc(C#N)cn2)CC1)NCc1n[nH]c(=O)c2ccc(OC3CC3)cc12 (stereo not shown)" test_readout=GI50 value_measured="1000 to 5000 nM"
molecule=CC#Cc1ccc2c(=O)[nH]nc(Cc3ccc(F)c(C(=O)N4CCN(c5ccc(C#N)cn5)CC4)c3)c2c1C test_readout=GI50 value_measured="< 100 nM"
molecule=CC#Cc1cc2c(Cc3ccc(F)c(C(=O)N4CCN(c5ccc(C#N)cn5)CC4)c3)n[nH]c(=O)c2cc1C test_readout=GI50 value_measured="100 to 1000 nM"
molecule="CC#Cc1ccc2c(=O)[nH]nc(Cc3ccc(F)c(C(=O)N4CC(N(C)c5ccc(C#N)cn5)C4)c3)c2c1 [Example 70, 2,2,2-trifluoroacetate]" test_readout=GI50 value_measured="> 5000 nM"
molecule=O=C(c1cc(Cc2n[nH]c(=O)c3ccc(OC4CCC4)cc23)ccc1F)N1CCN(c2ncc(C3CC3)cn2)CC1 test_readout=GI50 value_measured="< 100 nM"
molecule=N#Cc1ccc(N2CCN(C(=O)c3cc(Cc4n[nH]c(=O)c5ccc(N6CC7(CCC7)C6)cc45)ccc3F)CC2)nc1 test_readout=GI50 value_measured="100 to 1000 nM"
molecule=N#Cc1ccc(N2CCN(C(=O)c3ccnc(Cc4n[nH]c(=O)c5ccc(OC6CCC6)cc45)c3)CC2)nc1 test_readout=GI50 value_measured="< 100 nM"
molecule=N#Cc1ccc(N2CCN(C(=O)c3cc(Cc4n[nH]c(=O)c5ccc(NC6CC6)cc45)ccc3F)CC2)nc1 test_readout=GI50 value_measured="100 to 1000 nM"
molecule=N#Cc1ccc(N2CCN(C(=O)c3cc(Cc4n[nH]c(=O)c5ccc(NCC(F)(F)F)cc45)ccc3F)CC2)nc1 test_readout=GI50 value_measured="1000 to 5000 nM"
molecule=C#CCN(C)c1ccc2c(=O)[nH]nc(Cc3ccc(F)c(C(=O)N4CCN(c5ccc(C#N)cn5)CC4)c3)c2c1 test_readout=GI50 value_measured="1000 to 5000 nM"
molecule=COc1ccc2c(=O)[nH]nc(Cc3cccc(C(=O)N4CCN(c5ccc(C#N)cn5)CC4)c3)c2c1 test_readout=GI50 value_measured="< 100 nM"
molecule=Cc1nc(N2CCN(C(=O)c3cc(Cc4n[nH]c(=O)c5ccc(OC6CCC6)cc45)ccc3F)CC2)ccc1C#N test_readout=GI50 value_measured="100 to 1000 nM"
molecule="CC#Cc1ccc2c(=O)[nH]nc(CNC(C)CC(=O)N3CCN(c4ncc(C(F)(F)F)cn4)CC3)c2c1 (stereo not shown)" test_readout=GI50 value_measured="100 to 1000 nM"
molecule="CC#Cc1ccc2c(=O)[nH]nc(C(C)OCCC(=O)N3CCN(c4ncc(C(F)(F)F)cn4)CC3)c2c1 (stereo not shown)" test_readout=GI50 value_measured="100 to 1000 nM"
molecule=CC#Cc1ccc2c(=O)[nH]nc(Cc3ccc(F)c(C(=O)N4CCN(c5ccc(C#N)cn5)C(=O)C4(C)C)c3)c2c1 test_readout=GI50 value_measured="1000 to 5000 nM"
molecule=CC#Cc1ccc2c(=O)[nH]nc(Cc3ccc(F)c(C(=O)N4CCn5c(nnc5C5CC5)C4)c3)c2c1 test_readout=GI50 value_measured="> 5000 nM"
molecule=N#Cc1ccc(N2CCCC23CN(C(=O)c2cc(Cc4n[nH]c(=O)c5ccc(OC6CCC6)cc45)ccc2F)C3)nc1 test_readout=GI50 value_measured="> 5000 nM"

Measured values drawn from patent US20260055079A1 for this set.
